These data points were gathered from patent US11667688B2.

Tested System: human glucagon receptors (Homo sapiens)
Construct: a region corresponding to Open Reading Frame (ORF) in the cDNA; expressed in transfected cells
Sequence (P47871 26-477): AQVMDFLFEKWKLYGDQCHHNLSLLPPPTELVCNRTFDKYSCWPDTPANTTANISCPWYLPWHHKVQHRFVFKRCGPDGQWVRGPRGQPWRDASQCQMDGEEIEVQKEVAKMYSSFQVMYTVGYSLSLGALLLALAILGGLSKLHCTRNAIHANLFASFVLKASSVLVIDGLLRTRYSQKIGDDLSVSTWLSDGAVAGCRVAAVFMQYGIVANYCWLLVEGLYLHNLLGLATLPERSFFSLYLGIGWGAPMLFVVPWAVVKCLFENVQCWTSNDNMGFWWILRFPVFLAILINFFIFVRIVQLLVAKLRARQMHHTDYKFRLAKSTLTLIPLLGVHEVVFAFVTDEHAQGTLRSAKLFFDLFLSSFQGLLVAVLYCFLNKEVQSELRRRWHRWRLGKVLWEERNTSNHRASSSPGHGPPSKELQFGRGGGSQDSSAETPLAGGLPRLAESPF
Protocol Notes: cAMP activity of glucagon derivatives in CHO cell line transfected with human glucagon receptor (LANCE cAMP kit)
Assay type: cell-based
Condition Parameters: cAMP EC50 compared with that of native glucagon; CHO cells with human glucagon receptor
Experimental: PCR was performed using a region corresponding to Open Reading Frame (ORF) in the cDNA (OriGene Technologies, Inc., USA) of human glucagon receptor gene as a template along with the following forward and reverse primers (SEQ ID NOS: 47 and 48, respectively), which include each of the EcoRI and XhoI restriction sites. The PCR product was cloned into a known animal cell expression vector, x0GC/dhfr, to prepare a recombinant vector x0GC/GCGR. […]
Bridge positions count the residues as written; N and C are the ends. Square brackets hold non-standard residues; d marks the D form. Ends that are not written are not given here. Aib = CC(C)(N)C(=O)O
Result Type: In vitro Activity (Relative Activity of SEQ ID NO: 1, %)

Endpoint output: In vitro Activity (Relative Activity of SEQ ID NO: 1, %) of WXQGTFTSDYSKCLDERRAKDFVQWLMNT (W[Aib]QGTFTSDYSKCLDERRAKDFVQWLMNT; bridge 16-20) [SEQ ID NO: 30, glucagon derivative, X = Aib] . Value?
0.3

[I] YXQGTFTSDYSKYLDSRRAQDFVQWLMNTC (Aib at position 2; glucagon derivative; (2) Xaa is aminoisobutyric acid (Aib)) [SEQ ID NO: 44, glucagon derivative, X = Aib]
[II] WXQGTFTSDYSKYCDERRAKEFVQWLMNT (W[Aib]QGTFTSDYSKYCDERRAKEFVQWLMNT; bridge 16-20) [SEQ ID NO: 34, glucagon derivative, X = Aib]
Could you please tell me which of these two has the higher In vitro Activity (Relative Activity of SEQ ID NO: 1, %): I or II ? Select an item and report its label.
I
